Provenance of the data: BigSolDB 2.1

Test context: in cyclohexane, 305.57 K
Assay endpoint: solubility (mole fraction)
Could you keep your reply to the number by itself?

Give its solubility (mole fraction) value. Item: Cc1ccc2cc(C)ccc2c1 0.0513

* * *

Test context: in n-heptane, 298.72 K
Assay endpoint: solubility (mole fraction)
Could you keep your reply to the number by itself?

Give its solubility (mole fraction) value. Item: Cc1ccc2cc(C)ccc2c1 0.0433

* * *

Test context: in ethyl acetate, 292.27 K
Assay endpoint: solubility (mole fraction)

Give its solubility (mole fraction) value. Item: Cc1ccc2cc(C)ccc2c1 0.0494

* * *

Test context: in isooctane, 322.03 K
Assay endpoint: solubility (mole fraction)
Could you keep your reply to the number by itself?

Give its solubility (mole fraction) value. Item: Cc1ccc2cc(C)ccc2c1 0.0905

* * *

Test context: in isopropanol, 330.55 K
Assay endpoint: solubility (mole fraction)
Could you keep your reply to the number by itself?

Give its solubility (mole fraction) value. Item: Cc1ccc2cc(C)ccc2c1 0.0297

* * *

Test context: in isooctane, 327.1 K
Assay endpoint: solubility (mole fraction)

Give its solubility (mole fraction) value. Item: Cc1ccc2cc(C)ccc2c1 0.113
